The reported measurements were obtained from ChEMBL document CHEMBL5316332.

# Protocol description: Metabolic stability in human liver microsomes assessed as half life at 2 uM and mesured upto 60 mins in presence of NADPH by UHPLC-MS analysis
# Type: ADME, Microsome
# Setup conditions: microsomes, 1 h, 2 µM
# strict inequality: t1/2 < 1 h yields class 1, everything else yields class 0

Cn1c(-c2ccc3cnccc3c2)nc2ccc(C(=O)NCc3cccc(C(N)=O)c3)cc21
class 0
Cc1nnc2n1-c1ccc(Cl)cc1C(c1ccccc1)=NC2
class 0
COc1cnc(Nc2cccc(S(N)(=O)=O)c2)nc1N1CC(F)(c2ccccc2)C1
class 0
CCOc1cnc(Nc2cccc(S(N)(=O)=O)c2)nc1N1CCN(c2ccccc2)C(=O)C1
class 0

Turning to the following compound.
Q. Determine if `CNC(=O)CCc1ccc(C(=O)NCc2cccc(N3CCN(c4nc(Nc5cccc(S(N)(=O)=O)c5)ncc4OC)CC3)c2)cc1` shows t1/2 strictly lower than 1 h.
A. class 1

###

# Protocol description: Metabolic stability in mouse liver microsomes assessed as half life at 2 uM and mesured upto 60 mins in presence of NADPH by UHPLC-MS analysis
# Format: ADME, Microsome
# Setup conditions: microsomes, 1 h, 2 µM
t1/2 by entry:
Write the value in min as a bare number.

Q. Give the measured t1/2 of `NC(=O)c1cccc(CNC(=O)c2ccc3nc(-c4ccc5cnccc5c4)n(C4CCCC4)c3c2)c1` .
A. 45

Q. Give the measured t1/2 of `CNC(=O)CCc1ccc(C(=O)NCc2cccc(N3CCN(c4nc(Nc5cccc(S(N)(=O)=O)c5)ncc4OC)CC3)c2)cc1` .
A. 7

Q. Give the measured t1/2 of `Cn1c(-c2ccc3cnccc3c2)nc2ccc(C(=O)NCc3cccc(C(N)=O)c3)cc21` .
A. 14

Q. Give the measured t1/2 of `Cc1nnc2n1-c1ccc(Cl)cc1C(c1ccccc1)=NC2` .
A. 258

Q. Give the measured t1/2 of COc1cnc(Nc2cccc(S(N)(=O)=O)c2)nc1N1CCN(c2ccccc2)C(C)C1 (stereo not given) .
A. 6

###

# Protocol description: Metabolic stability in mouse liver microsomes assessed as half life at 2 uM and mesured upto 60 mins in presence of NADPH by UHPLC-MS analysis
# Type: ADME, Microsome
# Setup conditions: microsomes, 1 h, 2 µM
t1/2 by entry:
Give the figure together with its unit, number first.

The examples below pair each entry with its known result.
COc1cnc(Nc2cccc(S(N)(=O)=O)c2)nc1N1CCN(c2ccccc2)C(=O)C1
40 min
CCOc1cnc(Nc2cccc(S(N)(=O)=O)c2)nc1N1CCN(c2ccccc2)C(=O)C1
18 min
COc1cnc(Nc2cccc(S(N)(=O)=O)c2)nc1N1CCN(c2ccccc2)CC1
12 min
COc1cnc(Nc2cccc(S(N)(=O)=O)c2)nc1N1CC(F)(c2ccccc2)C1
21 min

Q. Give the measured t1/2 of COc1cnc(Nc2cccc(S(N)(=O)=O)c2)nc1N1CCN(c2ccccc2)CC1C (stereo not given) .
A. 6 min

###

# Test system: Bone morphogenetic protein receptor type-2 (Homo sapiens)
# Sequence (Q13873 whole entry): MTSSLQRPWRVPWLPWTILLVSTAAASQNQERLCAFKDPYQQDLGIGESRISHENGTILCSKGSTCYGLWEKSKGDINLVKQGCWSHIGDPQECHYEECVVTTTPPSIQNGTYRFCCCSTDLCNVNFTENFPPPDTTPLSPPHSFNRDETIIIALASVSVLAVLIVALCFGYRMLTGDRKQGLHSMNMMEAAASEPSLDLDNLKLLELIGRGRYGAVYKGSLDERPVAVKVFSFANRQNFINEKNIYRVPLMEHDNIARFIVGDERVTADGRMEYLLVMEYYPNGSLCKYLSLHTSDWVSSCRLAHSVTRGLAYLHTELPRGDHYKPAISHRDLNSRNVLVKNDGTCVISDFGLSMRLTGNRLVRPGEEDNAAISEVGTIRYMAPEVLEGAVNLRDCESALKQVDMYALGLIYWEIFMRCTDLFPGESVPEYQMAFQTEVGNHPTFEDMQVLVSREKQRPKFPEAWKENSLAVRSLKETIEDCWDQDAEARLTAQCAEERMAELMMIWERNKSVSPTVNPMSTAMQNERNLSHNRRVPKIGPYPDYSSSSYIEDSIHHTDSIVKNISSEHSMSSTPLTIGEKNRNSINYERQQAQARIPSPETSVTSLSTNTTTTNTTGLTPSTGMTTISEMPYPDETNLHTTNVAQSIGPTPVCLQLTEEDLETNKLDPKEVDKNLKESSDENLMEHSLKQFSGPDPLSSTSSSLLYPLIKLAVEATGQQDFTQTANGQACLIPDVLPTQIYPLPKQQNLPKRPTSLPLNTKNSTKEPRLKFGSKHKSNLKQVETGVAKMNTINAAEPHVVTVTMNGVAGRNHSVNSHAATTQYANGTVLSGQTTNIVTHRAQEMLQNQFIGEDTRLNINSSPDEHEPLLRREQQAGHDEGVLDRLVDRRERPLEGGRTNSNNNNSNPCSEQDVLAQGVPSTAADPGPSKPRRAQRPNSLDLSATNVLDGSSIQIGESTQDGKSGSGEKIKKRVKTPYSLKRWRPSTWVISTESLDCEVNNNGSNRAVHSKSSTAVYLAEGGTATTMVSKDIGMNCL
# Protocol description: Inhibition of recombinant C-terminal 6His-tagged human BMPR2 (188 to 517 residues) expressed in Escherichia coli Rosetta assessed as apparent inhibition constant using ATP as substrate incubated for 30 mins by Morrison plot analysis
# Setup conditions: read-out: Ki(app)
Observable: pKi
Scale for pKi: -log10 of concentration given in mol/L; no unit attached.

Q. Give the measured pKi of `NS(=O)(=O)c1cccc(Nc2ncc(F)c(N3CCN(c4ccccc4)C(=O)C3)n2)c1` .
A. 6.63

Q. Give the measured pKi of `COc1cnc(Nc2cccc(S(N)(=O)=O)c2)nc1N1CCN(c2ccccc2)CC1` .
A. 7.40

Q. Give the measured pKi of `CCOc1cnc(Nc2cccc(S(N)(=O)=O)c2)nc1N1CCN(c2ccccc2)C(=O)C1` .
A. 8.30

Q. Give the measured pKi of COc1cnc(Nc2cccc(S(N)(=O)=O)c2)nc1N1CC2CCC1CN2c1ccccc1 (stereo unspecified) .
A. 6.51

Q. Give the measured pKi of `COc1cnc(Nc2cccc(S(N)(=O)=O)c2)nc1N1CCNCC1` .
A. 6.60

Q. Give the measured pKi of `COc1cnc(Nc2cccc(S(N)(=O)=O)c2)nc1N1CC2CCC(C1)N2c1ccccc1` .
A. 6.66

Q. Give the measured pKi of COc1cnc(Nc2cccc(S(N)(=O)=O)c2)nc1N1CC2CC1CN2c1ccccc1 (stereo unspecified) .
A. 6.03

Q. Give the measured pKi of `CNC(=O)CCc1ccc(C(=O)NCc2cccc(N3CCN(c4nc(Nc5cccc(S(N)(=O)=O)c5)ncc4OC)CC3)c2)cc1` .
A. 7.69

Q. Give the measured pKi of COc1cnc(Nc2cccc(S(N)(=O)=O)c2)nc1N1CCN(c2ccccc2)CC1C (stereo unspecified) .
A. 7.06
